biological target: Recombinant human JAK2 kinase domain protein (Residues 812-1132) (Homo sapiens); test: JAK2 biochemical assay (microfluidic mobility shift, peptide phosphorylation); settings: Enzyme JAK2 Ki (nM), 25 μM ATP, 0.2 nM total JAK2
Sequence (O60674 812-1132): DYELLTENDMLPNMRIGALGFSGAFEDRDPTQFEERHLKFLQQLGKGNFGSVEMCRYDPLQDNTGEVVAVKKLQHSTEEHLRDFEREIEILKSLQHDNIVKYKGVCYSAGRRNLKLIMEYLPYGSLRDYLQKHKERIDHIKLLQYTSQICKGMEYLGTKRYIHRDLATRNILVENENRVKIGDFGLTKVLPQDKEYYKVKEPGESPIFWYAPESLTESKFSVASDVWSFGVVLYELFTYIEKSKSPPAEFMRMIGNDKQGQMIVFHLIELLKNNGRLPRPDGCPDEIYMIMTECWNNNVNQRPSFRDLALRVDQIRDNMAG
Kindly apply the following: true (1) if Ki is less than 0.2 nM, false (0) in every other case.

Please review the following examples before continuing.
>>> class_label("Cn1cc(NC(=O)c2cnn3cccnc23)c(-c2cc(S(=O)(=O)c3cncnc3)ccc2OC(F)F)n1")
"false (0)"
>>> class_label("Cn1cc(NC(=O)c2cnn3cccnc23)c(-c2cc(S(=O)(=O)CCN)ccc2OC(F)F)n1")
"false (0)"
>>> class_label("Cn1cc(NC(=O)c2cnn3cccnc23)c(-c2cc(S(=O)(=O)c3cccc(CCN)c3)ccc2OC(F)F)n1")
"false (0)"
>>> class_label("Cn1cc(NC(=O)c2cnn3cccnc23)c(-c2cc(S(=O)(=O)c3ccncc3)ccc2OC(F)F)n1")
"true (1)"
>>> class_label("CN1CC(n2cc(NC(=O)c3cnn4cccnc34)c(-c3cc(S(=O)(=O)C4CC4)ccc3OC(F)F)n2)C1")
"false (0)"

Decide: Ki of "Cn1cc(NC(=O)c2cnn3cccnc23)c(-c2cc(S(=O)(=O)c3cn[nH]c3)ccc2OC(F)F)n1" strictly below 0.2 nM?
true (1)

Decide: Ki of "Cn1cc(NC(=O)c2cnn3cccnc23)c(-c2cc(S(=O)(=O)C3CNC3)ccc2OC(F)F)n1" strictly below 0.2 nM?
false (0)

Decide: Ki of "Cn1cc(NC(=O)c2cnn3cccnc23)c(-c2cc(S(=O)(=O)C3COC3)ccc2OC(F)F)n1" strictly below 0.2 nM?
true (1)

Decide: Ki of CC(O)C(C)S(=O)(=O)c1ccc(OC(F)F)c(-c2nn(C)cc2NC(=O)c2cnn3cccnc23)c1 (single isomer, unassigned) [Example 68] strictly below 0.2 nM?
false (0)

Decide: Ki of "CN(CCO)S(=O)(=O)c1ccc(OC(F)F)c(-c2nn(C)cc2NC(=O)c2cnn3cccnc23)c1" strictly below 0.2 nM?
false (0)
